Tested on: HCT116 MAP3K1 KO cells
Assay: PrestoBlue growth inhibition assay
Format: cell-based
Details: Homo sapiens, HCT-116, 72 h, HCT116 MAP3K1 KO; 72 h; PrestoBlue
Procedure: To investigate the target dependency of 51-106 activity, MAP3K1 was genetically knocked out (KO) in HCT116 cells using CRISPR-Cas9 technology (Gene Editing and Screening Core Facility, Memorial Sloan Kettering Cancer Center). […] A suspension of in 90 μL media was plated per well in clear, flat-bottomed, sterile, 96-well tissue culture plates (Cat# 12-565-438; Fisher Scientific, Waltham, MA, USA). […] Fluorescence was measured on a plate reader. […]
pIC50: −log10 of the molar value.
property.name: pIC50

Param item = Cn1cc(-c2cnc3ccc(NC(=O)Nc4ccc(F)c(C(F)(F)F)c4)cc3n2)cn1 [51-106] ; retrieve measured pIC50.
~5.05

----------
assay: Pharmacokinetic studies, oral and intravenous dosing; format: in vivo, CD1 mice; settings: mouse, in vivo; CD1 mice; 10 mg/kg; Oral
property.name: half-life (h)
Report as a plain number; the unit h is understood.

Param item = Cn1cc(-c2cnc3ccc(NC(=O)Nc4ccc(F)c(C(F)(F)F)c4)cc3n2)cn1 [51-106] ; retrieve measured half-life.
3.5

----------
experiment: Pharmacokinetic studies, oral and intravenous dosing; assay type: in vivo, CD1 mice; conditions: mouse, in vivo; CD1 mice; 10 mg/kg; Intravenous
property.name: AUC(0-inf) (ng·h/mL)
Report as a plain number; the unit ng·h/mL is understood.

Param item = Cn1cc(-c2cnc3ccc(NC(=O)Nc4ccc(F)c(C(F)(F)F)c4)cc3n2)cn1 ; retrieve measured AUC(0-inf).
9120

----------
assay: Pharmacokinetic studies, oral and intravenous dosing; assay type: in vivo, CD1 mice; conditions: mouse, in vivo; CD1 mice; 10 mg/kg; Oral
property.name: Tmax (h)
Report as a plain number; the unit h is understood.

Param item = Cn1cc(-c2cnc3ccc(NC(=O)Nc4ccc(F)c(C(F)(F)F)c4)cc3n2)cn1 ; retrieve measured Tmax.
2.7

----------
experiment: Pharmacokinetic studies, oral and intravenous dosing; format: in vivo, CD1 mice; settings: mouse, in vivo; CD1 mice; 10 mg/kg; Oral; read-out: MRT 0-∞
property.name: MRT inf (h)
Report as a plain number; the unit h is understood.

Param item = Cn1cc(-c2cnc3ccc(NC(=O)Nc4ccc(F)c(C(F)(F)F)c4)cc3n2)cn1 [51-106] ; retrieve measured MRT inf.
6.4
